# Tested on: NOMO1
# PROCEDURE_DETAILS: AUC of viability dose-response curve (% viability x log10 dose units); higher = less sensitive
# CONDITIONS: RPMI 5 mM glucose + 10% FBS; 48 h
Exercise: state measured AUC of viability dose-response curve for each of the compounds provided.
Numbers only.

Example entries and their recorded answers appear below.
So what AUC of viability dose-response curve did `C[S+](=O)([O-])N1CCc2c(-c3cnc(N)nc3)nc(N3CCOCC3)nc21` get with NOMO1?
442

Quick one: `Cc1cccc(Nc2nc(-c3ccncc3)cs2)c1`
466

Quick one: `CC(C)NC[C@@H](C(=O)N1CCN(c2ncnc3c2[C@H](C)C[C@H]3O)CC1)c1ccc(Cl)cc1`
444

Would you mind doing `CCC[C@H]1C[C@H](C(=O)N[C@@H]([C@@H]2O[C@@H](SC)[C@@H](O)[C@@H](O)[C@H]2O)[C@H](C)Cl)N(C)C1` as well?
430

We next turn to a different compound, shown below.
Test system NOMO1; read-out AUC of viability dose-response curve; what value for `COCCCN1CCC(NC(=O)c2cc(Cl)c(N)c3c2OCC3)CC1` ?
456

---

# System: SEM cells
# PROCEDURE_DETAILS: cell viability relative to DMSO control; higher = less cytotoxic
# CONDITIONS: RPMI 5 mM glucose + 10% FBS; 48 h; 0.000781 µM
ENDPOINT_LABEL: cell viability (%)
One number for each entry, in %.

Please tell me: cell viability of `Cc1ccc([S+](=O)([O-])N[C@@H](Cc2ccccc2)C(=O)CCl)cc1` , system SEM cells?
87.4

Next compound up: `FC(F)c1nc2ccccc2n1-c1nc(N2CCOCC2)nc(N2CCOCC2)n1`
87.6

Try this compound next: `C[C@@H]1[C@H](O)[C@@H](C)/C=C/C=C/C=C/C=C/C=C/C=C/C=C/[C@H](O[C@@H]2O[C@H](C)[C@@H](O)[C@H](N)[C@@H]2O)C[C@@H]2O[C@](O)(C[C@@H](O)C[C@@H](O)[C@H](O)CC[C@@H](O)C[C@@H](O)CC(=O)O[C@H]1C)C[C@H](O)[C@H]2C(=O)O`
113

Same lookup for `CCOC(=O)C/1=C(O)/C(=O)N(CC2=CC=CC=C2)C1` , please.
99

New cases:
Requested read-out cell viability, target or system SEM cells, entry `NC/1=N/C2=C([NH]C=N2)C(=S)N1`
114

---

Please respond with reported AUC of viability dose-response curve for every item in the list.
# Tested on: NOMO1
# PROCEDURE_DETAILS: AUC of viability dose-response curve (% viability x log10 dose units); higher = less sensitive
# CONDITIONS: RPMI 5 mM glucose + 10% dialyzed FBS; 48 h
One number for each entry.

Report AUC of viability dose-response curve for every entry below.
1. Fc1ccc([C@@H]2CCNC[C@H]2COc2ccc3c(c2)OCO3)cc1
2. CN[C@@H]1[C@H](O)[C@H](NC)[C@H]2O[C@@]3(O)C(=O)C[C@@H](C)O[C@H]3O[C@@H]2[C@H]1O
3. CC(C)C[C@@H](C=O)NC(=O)[C@H](CC(C)C)NC(=O)[C@H](CC(C)C)NC(=O)OCc1ccccc1
4. C[S+](=O)([O-])N1CCc2c(-c3cnc(N)nc3)nc(N3CCOCC3)nc21
5. CC(C)C1=C(O)C=C(O)C(=C1)C/2=N/NC(=O)N2C3=CC4=C(C=C3)[N](C)C=C4
6. CN1CCCN=C1/C=C/c1cccs1.O=C(O)c1cc2ccccc2c(Cc2c(O)c(C(=O)O)cc3ccccc23)c1O

1: 455; 2: 467; 3: 351; 4: 404; 5: 250; 6: 436

Go through the list and state AUC of viability dose-response curve for each entry.
1. COc1cc2nccc(Oc3ccc(NC(=O)NC4CC4)c(Cl)c3)c2cc1C(N)=O
2. S=C1N\C=N/C2=C1[NH]C=N2
3. CC1COC2(CCN(CC2)C/3=N/C(=O)C4=CC(=CC(=C4S3)[N+]([O-])=O)C(F)(F)F)O1 (stereo not drawn)
4. CNC1CCC(N(Cc2cccc(-c3ccncc3)c2)C(=O)c2sc3c(F)ccc(F)c3c2Cl)CC1 (stereo not drawn)
5. C=C[C@H]1CN2CC[C@H]1C[C@H]2[C@H](O)c1ccnc2ccc(OC)cc12
6. CC(C)NC[C@@H](C(=O)N1CCN(c2ncnc3c2[C@H](C)C[C@H]3O)CC1)c1ccc(Cl)cc1

[445, 360, 467, 466, 469, 419]

Please look at the items below and tell me AUC of viability dose-response curve for each one, in order.
1. CCCCCC[C@H]1C(=O)O[C@H](C)[C@H](NC(=O)c2cccc(NC=O)c2O)C(=O)O[C@@H](C)[C@@H]1OC(=O)CC(C)C
2. O=C(O)C1=NC(C(=O)O)CC(/C=C/N2c3cc(O)c(OC4OC(CO)C(O)C(O)C4O)cc3CC2C(=O)O)=C1 (stereo not drawn)
3. C\C1=C(\C=C(C#N)/C(=O)N1)C2=C[N]3C=CN=C3C=C2
4. CNc1nccc(-c2cccnc2Oc2cc(C(=O)Nc3cccc(C(F)(F)F)c3)ccc2C)n1
5. C[C@@H]1[C@H](O)[C@@H](C)/C=C/C=C/C=C/C=C/C=C/C=C/C=C/[C@H](O[C@@H]2O[C@H](C)[C@@H](O)[C@H](N)[C@@H]2O)C[C@@H]2O[C@](O)(C[C@@H](O)C[C@@H](O)[C@H](O)CC[C@@H](O)C[C@@H](O)CC(=O)O[C@H]1C)C[C@H](O)[C@H]2C(=O)O

1. 442
2. 421
3. 405
4. 461
5. 461

Source: the supplement of paper PMC11451515
